Tested on: lacZ under control of the tetA promoter (PtetA) in E. coli KM3
Type: cell-based
condition_notes: Table 6, reverse repressor hits; thifensulfuron, same plate assay format (20 ppm)
endpoint: relative β-galactosidase activity, inducer Ts

molecule: L1-36: library L1 hit with reverse repressor activity (SEQ ID NO: 1206-1213) (protein, rSuR L1-36) MGSRLDKSKVINSALELLNEVGIEGLTTRKLAQKLGVEQPTLYWHVKNKRALLDALAIEMADRHHTHFCPLEGESWQDFLRNAAKSMRCALLSHRDGAKVRLGTAWTEKQYETHENVLAFLCQQGFSLENALYALKAVSGFTLGCVLKDQEMQVAKEERETPTTDSMPPLLRQATELVDHQGAEPAFLFGLELIICGLEKQLKCESGS
observed: 0.48
